Biological target: T1, human CD73 on tumor cell line MDA-MB-231 that highly expresses human CD73 (human, UniProt P21589 27-549)
T1 sequence (looked up): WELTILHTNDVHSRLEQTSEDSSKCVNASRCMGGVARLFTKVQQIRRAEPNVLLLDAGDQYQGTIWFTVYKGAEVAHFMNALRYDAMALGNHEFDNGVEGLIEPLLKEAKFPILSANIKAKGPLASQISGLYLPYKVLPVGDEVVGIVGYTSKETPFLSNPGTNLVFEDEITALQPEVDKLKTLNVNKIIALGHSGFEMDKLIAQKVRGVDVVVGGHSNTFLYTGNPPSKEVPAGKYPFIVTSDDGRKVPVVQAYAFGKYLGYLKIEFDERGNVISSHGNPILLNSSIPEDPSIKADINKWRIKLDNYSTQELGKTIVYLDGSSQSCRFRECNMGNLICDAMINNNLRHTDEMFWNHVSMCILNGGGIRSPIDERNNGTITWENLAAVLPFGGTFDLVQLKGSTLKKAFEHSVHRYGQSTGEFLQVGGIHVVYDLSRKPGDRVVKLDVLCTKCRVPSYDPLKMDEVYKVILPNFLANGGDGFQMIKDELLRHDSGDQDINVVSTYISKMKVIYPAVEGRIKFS
Experiment: cell-based or functional assay
Measurement name: IC50 (nM) in the assay showing the inhibition of enzyme activity in MDA-MB-231 cell
Reply with just the number (in nM).

Hab108.64 (antibody, human IgG1, kappa, V domains shown, also called humanized antibody of mab108) VH: EVTLKQSGPGLVKPTETLTLTCTVSGFSLSSYGIQWVRQPPGKGLEWLGVIWSGGSADYNAAFISRLTISKDTSKSQVVLTMTNMDPVDTATYYCAGQYGSVWGQGTLVTVSS VL: DIQMTQSPSSLSASVGDRVTITCRASQDIGDRLNWLQQKPGGAIKRLIYATSSLDSGVPKRFSGSGSGTEYTLTISSLQPEDFATYYCLQYAGSWTFGGGTKVEIKR: 0.53

Recorded IC50 (nM) in the assay showing the inhibition of enzyme activity in MDA-MB-231 cell (binder CPX006 (antibody CPX-006 disclosed in patent application WO2018013611) (antibody, V domains shown) VH: QVQLVQSGAEVEKPGASVKVSCKASGYTFTSYWITWVRQAPGQGLEWMGDIYPGSGNTNYNEKFKTRVTITADKSTSTAYMELSSLRSEDTAVYYCAKEGGLTTEDYALDYWGQGTLVTVSS VL: EIVLTQSPATLSLSPGERATLSCRASKNVSTSGYSYMHWYQQKPGQAPRLLIYLASNLESGIPPRFSGSGYGTDFTLTINNIESEDAAYYFCQHSRELPFTFGQGTKVEIKR ): 10.2

Recorded IC50 (nM) in the assay showing the inhibition of enzyme activity in MDA-MB-231 cell (binder Hab127.31d (antibody, human IgG1, kappa, V domains shown, also called humanized antibody of mab127) VH: EVQLVQSGAEVKKPGASVKVSCKASGYTFTAYFMNWVRQAPGQGLEWMGRIYHNKGDTFYSQKFKGRVTMTVDKSTSTVYMELSSLRSEDTAVYYCATSYVGDWGQGTTVTVSS VL: DIQMTQSPSSLSASVGDRVTITCRASQDIGDSLNWLQQKPGGALKRLIYATSSLDSGVPSRFSGSGSGTEYTLTISSLQPEDFATYYCLQYASFPWTFGGGTKVEIKR ): 0.505

Recorded IC50 (nM) in the assay showing the inhibition of enzyme activity in MDA-MB-231 cell (binder Hab110.21 (antibody, human IgG1, kappa, V domains shown, also called humanized antibody of mab110) VH: EVQLVQSGAEVKKPGASVKVSCKASGYTFTSYTMHWVRQAPGQRLEWMGYINPNSFYIEYNQKFKDRVTITRDTSASTAYMELSSLRSEDTAVYYCARGDYDLFYDMDNWGQGTTVTVSS VL: DIQMTQSPSSLSASVGDRVTITCRASQDIGNSLNWLQQKPGKAIKRLIYATFRLDSGVPSRFSGSRSGTEYTLTISSLQPEDFATYYCQQYASFPWTFGGGTKVEIKR ): 0.329
